Origin of measurements: patent US20180298024A1

biological target: hERG potassium channel (Homo sapiens); experiment: in vitro; details: human, Mean % hERG Inhibition
Sequence (Q12809 whole entry): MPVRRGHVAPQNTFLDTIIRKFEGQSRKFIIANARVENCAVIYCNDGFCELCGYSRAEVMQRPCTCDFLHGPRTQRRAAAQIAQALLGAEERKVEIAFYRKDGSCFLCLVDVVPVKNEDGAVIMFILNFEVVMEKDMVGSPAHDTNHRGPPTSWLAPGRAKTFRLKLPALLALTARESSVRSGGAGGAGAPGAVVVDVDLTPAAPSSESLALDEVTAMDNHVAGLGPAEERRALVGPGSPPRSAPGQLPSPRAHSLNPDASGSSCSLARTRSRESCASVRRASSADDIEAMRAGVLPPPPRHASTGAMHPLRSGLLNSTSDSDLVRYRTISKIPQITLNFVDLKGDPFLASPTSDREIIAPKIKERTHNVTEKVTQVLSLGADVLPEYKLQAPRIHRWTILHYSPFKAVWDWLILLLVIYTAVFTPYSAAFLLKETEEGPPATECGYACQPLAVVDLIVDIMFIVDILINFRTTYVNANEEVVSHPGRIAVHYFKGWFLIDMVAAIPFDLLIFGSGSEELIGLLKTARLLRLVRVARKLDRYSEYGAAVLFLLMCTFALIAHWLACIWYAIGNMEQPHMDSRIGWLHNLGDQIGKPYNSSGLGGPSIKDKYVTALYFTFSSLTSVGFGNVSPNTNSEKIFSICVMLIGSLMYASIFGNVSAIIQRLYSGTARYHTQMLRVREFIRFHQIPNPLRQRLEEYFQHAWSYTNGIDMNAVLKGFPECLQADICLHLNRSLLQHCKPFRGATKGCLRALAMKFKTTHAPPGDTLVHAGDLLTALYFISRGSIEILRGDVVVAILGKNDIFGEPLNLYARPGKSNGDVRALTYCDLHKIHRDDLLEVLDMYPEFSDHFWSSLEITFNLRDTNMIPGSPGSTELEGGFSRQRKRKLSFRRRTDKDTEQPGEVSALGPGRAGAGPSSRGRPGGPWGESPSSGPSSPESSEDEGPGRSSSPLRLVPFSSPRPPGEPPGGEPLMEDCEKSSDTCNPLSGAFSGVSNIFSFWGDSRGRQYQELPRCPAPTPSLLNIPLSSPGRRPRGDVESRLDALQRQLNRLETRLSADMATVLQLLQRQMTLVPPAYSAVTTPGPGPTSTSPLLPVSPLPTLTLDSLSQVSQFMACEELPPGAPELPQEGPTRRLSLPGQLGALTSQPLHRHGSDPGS
Is inhibition at 3 µM at least 30%? Then fulfilled. If not, not fulfilled.

C[C@]12CC=C3C=C4CC[C@@H](N5C[C@H](O)[C@@H](O)C5)C[C@]45CC[C@]3(O5)[C@@H]1CC[C@@H]2c1ccc2ccncc2c1 : not fulfilled
C[C@]12CC=C3C=C4CC[C@@H](N5CCCC5)C[C@]45CCC3(O5)[C@@H]1CC[C@@H]2c1ccc2ccncc2c1 : fulfilled
C[C@]12CC=C3C=C4CC[C@@H](O)C[C@]45CC[C@]3(O5)[C@@H]1CC[C@@H]2c1ccc2ccncc2c1 : not fulfilled
C[C@]12CC=C3C=C4CC[C@@H](N5CC[C@@H](N)C5)C[C@]45CC[C@]3(O5)[C@@H]1CC[C@@H]2c1ccc2ccncc2c1 : not fulfilled

Field: next molecule
Query: Please check the record C[C@]12CC=C3C=C4CC[C@@H](N5CC(N)C5)C[C@]45CC[C@]3(O5)[C@@H]1CC[C@@H]2c1ccc2ccncc2c1 and state if its inhibition at 3 µM is at or above 30%.
Reply: not fulfilled
